Recorded composite z-score values for a group of compounds are listed next.
# Tested on: Noggin (protein binding on small-molecule microarray)
# protocolSummary: small molecules binding Noggin protein – biochemical, 635/667 nm fluorescence, primary screen (AID 1095);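 further: score merges 667 nm feature fluorescence with signal to noise over triplicate slides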
# conditionDescription: 635 nm fluorescence, higher = more signal
measure: composite z-score

1) C=C1C(=O)C=C2CN(C(=O)c3ccccc3)[C@@](Cc3ccc(OC)cc3)(C(=O)OC)[C@@H]12: 0.232
2) COc1ccc([Si](C)(C)[C@@H]2[C@@H](CC(=O)N3CCC[C@H]3CO)O[C@]3(C(=O)N(Cc4ccc(N5CCOC5=O)cc4)c4ccccc43)[C@H]2C)cc1: 1.46
3) CCOC(=O)C[C@H]1[C@H](OC(=O)Cc2ccc3c(c2)OCO3)[C@@H](NC(=O)Cc2ccc(OC)cc2)c2cc(OCCCO)ccc2N1C(=O)Cc1ccc(OC)cc1: -0.102
4) COc1ccc(C(O)C2C=CC3C(=O)N(C)C(=O)C3N2N(c2ccccc2)c2ccccc2)cc1 (stereo not given): 0.269
5) COC(=O)[C@@]1(Cc2ccc(F)cc2)[C@H]2c3cc(C(=O)N4CCCC4)n(CCc4ccccn4)c3C[C@H]2CN1C(=O)c1ccccc1: -0.701
6) C=CCC(OC(C)=O)[C@@H]1[C@@H](N(Cc2ccc(-c3cccc(C(F)(F)F)c3)o2)C(=O)Cc2ccc(F)cc2)c2cc(OCCCO)ccc2N1C(=O)Cc1ccc2ccccc2c1 (stereo not given in full): -0.244
7) O=C1C[C@]2(c3ccc([N+](=O)[O-])cc3)C(=O)N(C3CC3)c3cc(CO)ccc3[C@H]2N1C1CCCCC1: -0.533
8) O=C1C2C=CC(C(O)c3cccs3)N(Nc3ccc([N+](=O)[O-])cc3)C2C(=O)N1c1ccccc1 (stereo not given): -0.13
9) CN(C)C(=O)[C@]1(Cc2ccccc2)N=C(c2ccc(OCCCO)cc2)O[C@@H]1c1ccccc1CN=[N+]=[N-]: 0.605
10) CC(C)C(CO)N1C(=O)[C@@H]2C3C(=O)OCCC/C=C\[C@H]3OC23C=CCN(Cc2ccccc2)C(=O)[C@@H]13 (stereo not given in full): -0.989
11) CCCCC(O)C1C=CC2C(=O)N(c3ccccc3)C(=O)C2N1Nc1ccc([N+](=O)[O-])cc1 (stereo not given): 0.146
12) O=C1[C@@H]2[C@@H](CC(COc3ccccc3)=C([C@H](O)CCc3ccccc3)[C@@H]2CO)C(=O)N1Cc1ccccc1: 0.127
13) C=C(COC)C(=O)CC[C@H](OC(=O)c1cccnc1)c1ccc(OCCO)cc1: 1.22
14) Cc1ccc(C(C)CC(O)C2C=CC3C(=O)N(C)C(=O)C3N2Nc2ccccc2)o1 (stereo not given): 0.555
15) OCCCC1=CC(c2ccc(CN3CCCC3)cc2)N(Cc2cccc(OC(F)(F)F)c2)CC1 (stereo not given): 0.123
16) COC(=O)[C@@]1(Cc2ccccc2)N=C(c2ccc(OCCCO)cc2)O[C@H]1c1ccccc1CN=[N+]=[N-]: 1.05
17) COc1ccc(C(=O)Nc2ccc3c(c2)[C@@]2(O[C@H](CCO)[C@@H]([Si](C)(C)c4ccc(OC)cc4)[C@@H]2C)C(=O)N3Cc2ccccc2)cc1: 1.32
18) CCCCCC1=C2CNC(Cc3ccccc3)(C(=O)OC)C=C2C(C)C1=O (stereo not given): -1.49
19) CC(C)(C)N1CC=CC23O[C@@H]4/C=C\CCCOC(=O)C4[C@H]2C(=O)N(CCCO)[C@@H]3C1=O (stereo not given in full): -0.877
20) CN(C)C(=O)[C@@]1(Cc2ccccc2CN=[N+]=[N-])COC(c2ccc(OCCCO)cc2)=N1: -0.543
21) COc1ccc([Si](C)(C)[C@H]2[C@H](CC(=O)N3Cc4ccccc4C[C@H]3CO)O[C@@]3(C(=O)N(C)c4c(Br)cc(C)cc43)[C@@H]2C)cc1: 1.42
22) [N-]=[N+]=Nc1ccccc1C[C@@]1(C(=O)NCc2ccccc2)N=C(c2ccc(OCCCO)cc2)O[C@@H]1c1ccccc1N=[N+]=[N-]: 1.2
23) CN(C)CCCNC(=O)[C@@]1(C)c2ccccc2C(=O)N(Cc2ccc(OC(F)(F)F)cc2)[C@H]1c1ccc(CO)cc1: -0.552
24) C=C(C)[C@@H]1CC=C(C(O)C2C=CC3C(=O)N(C)C(=O)C3N2Nc2ccc([N+](=O)[O-])cc2[N+](=O)[O-])CC1 (stereo not given in full): 0.263
25) CCCCCCc1nc(-c2ccc(-c3ccc(Cl)c(Cl)c3)o2)cc2c1[Si](C(C)C)(C(C)C)OC2: -0.561
26) C=CCC(OC(C)=O)[C@@H]1[C@@H](N(Cc2cccc3ccccc23)C(=O)c2ccc(-c3ccccc3)cc2)c2cc(OCCCO)ccc2N1C(=O)Cc1ccc2ccccc2c1 (stereo not given in full): -0.109
27) CC(C)(C)OC(=O)CC[C@@]1(C(=O)NCCN2CCOCC2)N=C(c2ccc(OCCCO)cc2)O[C@@H]1c1ccccc1CN=[N+]=[N-]: 0.167
28) C=C(CCCC)C(=O)CC[C@H](OC(=O)c1ccccc1-c1ccccc1C(=O)O)c1ccc(OCCO)cc1: 1.43
29) CC(C)NC(=O)[C@@]1(C)c2ccccc2C(=O)N(Cc2ccccc2)[C@H]1c1ccc(CO)cc1: -0.644
30) C=C(CCCC)/C(=C/C[C@H](OC(C)=O)c1cccc(OCCO)c1)c1cnc2ccccc2c1: -0.271

###

Recorded composite z-score values for a group of molecules are listed next.
# System: glycogen synthase kinase-3 (GSK3A per assay name; protocol says GSK3B)
# protocolSummary: compounds binding glycogen synthase kinase-3 – biochemical, small-molecule microarray, 635 nm fluorescence, GSK3A, primary screen (AID 1103); further: the record names both GSK3A and GSK3B
# conditionDescription: fluorescence 635 nm, higher = more signal
measure: composite z-score

1) CC(C)=C1C(=O)C(c2ccccc2)=C2CN3C(=O)N(CCc4ccccc4)C(=O)[C@]3(C)[C@H]21: -0.701
2) CC(C)NC(=O)[C@@]1(C)c2ccccc2C(=O)N(Cc2ccccc2)[C@H]1c1ccc(CO)cc1: -0.0543
3) NC(=O)N1C(=O)C2C(C1=O)C1C=C(CCCO)C2C(c2ccc(CN3CCCC3)cc2)N1Cc1cc2c(cc1Br)OCO2 (stereo not given): 0.177
4) COC(=O)[C@@]1(Cc2ccccc2)[C@H]2c3cc(C(=O)N(C)C)n(CCO)c3C[C@H]2CN1C(=O)c1ccccc1: 0.594
5) CCCC#C[Si](O[C@H](CC)c1cn(Cc2ccccc2)nn1)(C(C)C)C(C)C: 0.49
6) COc1ccc(C(O)C2C=CC3C(=O)NC(=O)C3N2Nc2ccc(Cl)cc2Cl)c2ccccc12 (stereo not given): 0.15
7) CC(C)=CCCC(C)=CC(O)C1C=CC2C(=O)NC(=O)C2N1Nc1ccc(Cl)cc1Cl (stereo not given): 0.0742
8) CC(C)N1C(=O)c2ccccc2[C@@H](C(=O)NCC(F)(F)F)[C@@H]1c1ccc(CO)cc1: -0.871
9) COCCOC(=O)N1C(=O)[C@@]2(c3cc(C#CC4(O)CCCCCC4)ccc31)[C@H](c1ccc(O)cc1)N1[C@H](c3ccccc3)[C@H](c3ccccc3)OC(=O)[C@H]1[C@@H]2C(=O)N1CCCCCCC1: 1.29
10) COCCOC(=O)N1C(=O)[C@@]2(c3ccccc31)[C@H](C(=O)N1CCN(c3ncccn3)CC1)[C@H]1C(=O)O[C@H](c3ccccc3)[C@H](c3ccccc3)N1[C@@H]2c1ccccc1OCCO: 1.31
11) CC(C)N1C(=O)C[C@@](C(=O)NCCN2CCOCC2)(c2ccc([N+](=O)[O-])cc2)[C@H]1c1ccc(CO)cc1: -0.175
12) COC(=O)[C@@]1(Cc2ccc(OC)cc2)[C@H]2c3cc(C(=O)N4CCCC4)n(Cc4c(CO)[nH]cc(C)c4=O)c3C[C@H]2CN1C(=O)c1ccccc1: 0.237
13) COC(=O)C1(Cc2ccccc2)C=C2C(=C(C)C(=O)C2C)CN1 (stereo not given): -0.333
14) O=C1C[C@]2(c3ccc([N+](=O)[O-])cc3)C(=O)N(C3CC3)c3cc(CO)ccc3[C@H]2N1C1CCCCC1: 0.139
15) CC(C)C[C@@H]1NC(=O)[C@@H]2C[C@H](C(=O)NCCCCCCNC(=O)CS)[C@H](c3cccc(OCCO)c3)N2C1=O: 1.29

###

# Test system: XIP peptide (Xip251-270) binding
# protocolSummary: XIP fragment 251-270 binding compounds – biochemical, small-molecule microarray, fluorescence 635/667 nm, 0.1 µg/mL protein, primary screen (AID 1182)
# conditionDescription: fluorescent protein binding, 635 nm, higher = more signal, called active from +8 up or from −8 down
Please use the following composite z-score ranges when assigning a class: LOW = under 0.2, MID = from 0.2 up to 1, HIGH = 1 and over

1. CC(C)c1nc2cc(Br)ccc2c(=O)o1: MID
2. CC(C)[Si](C#CCCc1ccccc1)(O[C@H](c1ccccc1)c1cn(Cc2ccccc2)nn1)C(C)C: LOW
3. O=C1NC(=O)C2C1C=CC(C(O)c1ccc(B(O)O)cc1)N2Nc1ccc(Cl)cc1Cl (centres undefined): LOW
4. COC(=O)[C@@]1(Cc2ccccc2)N=C(c2ccc(OCCCO)cc2)O[C@H]1c1ccccc1CN=[N+]=[N-]: LOW
5. COc1ccc([Si](C)(C)[C@@H]2[C@@H](CC(=O)N3Cc4ccccc4C[C@H]3CO)O[C@]3(C(=O)N(Cc4ccc(N5CCOC5=O)cc4)c4ccccc43)[C@H]2C)cc1: HIGH
6. O=C1N(Cc2ccccc2)c2ccccc2C[C@@]12COC(c1ccc(OCCCO)cc1)=N2: HIGH
7. COc1ccc([Si](C)(C)[C@@H]2[C@@H](CC(=O)N3CCC[C@H]3CO)O[C@]3(C(=O)N(Cc4cccc(N5CCCCC5=O)c4)c4ccccc43)[C@H]2C)cc1: HIGH
8. O=C1O[C@H](c2ccccc2)[C@H](c2ccccc2)N2[C@H]1[C@@H](C(=O)O)[C@]1(C(=O)Nc3ccc(C#CCCO)cc31)[C@H]2c1ccc(OCCO)cc1: MID
9. CCOC(=O)C1=CCC(c2cc3ccccc3[nH]2)N(CCN2CC(C(=O)OCC)=CCC2c2cc3ccccc3[nH]2)C1 (centres undefined): MID
